Test system: LOX IMVI melanoma
Assay: NCI tumour cell line growth inhibition, 48 h
Provide the reported TGI of each item.

{"Compound": "O=C(N/N=C/c1cccc(O)c1O)N/N=C/c1cccc(O)c1O", "Target": "LOX IMVI melanoma", "Result": "> 100 µM"}
{"Compound": "O=S(=O)(O)C(O)/C=C/c1ccccc1 (stereo not drawn)", "Target": "LOX IMVI melanoma", "Result": "> 100 µM"}

Ask | Consider the compound `CSc1c(C(=O)Nc2ccc(C)cc2)c(N)[nH]c(=O)c1C#N` and give its measured TGI.
Reply | > 100 µM

----------
Tested on: SK-MEL-28 melanoma
Experiment: NCI tumour cell line growth inhibition, 48 h
Readout Name: GI50

Example entries begin here.
{"Smiles Text": "Cn1cc(C2=C(c3ccc(OC[C@@H](O)CO)cc3)C(=O)NC2=O)c2ccccc21", "GI50": "> 25 µM"}
{"Smiles Text": "C[C@@H]1Cc2c([nH]c3ccccc23)[C@@H](c2c(F)cc(/C=C/C(=O)O)cc2F)N1CC(C)(C)F", "GI50": "13.1 µM"}

Give measured GI50 for every item shown.
1. O=C1c2ccccc2-c2c1c1cc3c(cc1c(=O)n2CCCCl)OCO3
2. CC[n+]1ccc2c(c1)C(=O)c1nccc3c1c-2nc1ccccc13
3. COc1ccc(CNC(=O)COc2ccc(/C=N/Nc3nc4ccccc4s3)cc2)cc1

Reply |
19.2 µM
1.84 µM
4.35 µM

The measured values listed here are drawn from PubChem BioAssay (NCI).
